System: Salmonella typhi (ATCC 14028)
assay name: Microplate Alamar Blue Assay, Salmonella typhi
Format: cell-based
setup conditions: Salmonella enterica; 200 μg/mL; NI = No inhibition; read-out: Percentage (%) Inhibition, Slamonella typhi
Protocol: The anti-bacterial activity of synthesized compound were evaluated by the Microplate Alamar Blue Assay. […] For quantitative analysis, plates were read at 570 nm and 600 nm in Multiskan GOmicroplate spectrophotometer, (Thermo Scientific, USA). The % inhibition of bacterial growth was calculated using below mentioned formula. […]
Kindly supply the reported inhibition at 200 µg/mL values for the records listed here.
Answers are plain numbers, in %.

[
  {
    "compound structure string": "Cc1cc(C)nc(NS(=O)(=O)c2ccc(NC(=O)c3ccc([N+](=O)[O-])cc3Cl)cc2)n1",
    "inhibition at 200 µg/mL, %": 3.72
  },
  {
    "compound structure string": "Cc1cc(C)nc(NS(=O)(=O)c2ccc(NC(=O)c3ccc(Cl)cc3)cc2)n1",
    "inhibition at 200 µg/mL, %": 11.6
  }
]

In the following, a different compound is considered.
Problem: Write down inhibition at 200 µg/mL measured for item Cc1cc(C)nc(NS(=O)(=O)c2ccc(NC(=O)c3ccccc3C)cc2)n1
Result: 0.2

###

assay name: MTT cytotoxicity assay
Type: cell-based, mouse
setup conditions: mouse; MTT, 48 hours; read-out: Cytotoxicity NIH-3T3 cell line (IC50)
measurement label: IC50 at 48 h

Problem: Write down IC50 at 48 h measured for item Cc1cc(C)nc(NS(=O)(=O)c2ccc(NC(=O)c3cc([N+](=O)[O-])cc([N+](=O)[O-])c3)cc2)n1 [Compound 26]
Result: > 30 µM

###

System: Salmonella typhi (ATCC 14028)
assay name: Microplate Alamar Blue Assay, Salmonella typhi
Type: cell-based
setup conditions: Salmonella enterica; 200 μg/mL; NI = No inhibition; read-out: Percentage (%) Inhibition, Slamonella typhi
measurement label: inhibition at 200 µg/mL (%)
Answers are plain numbers, in %.

Please review the entries below; each comes with its answer.
[
  {
    "compound": "COc1cccc(C(=O)Nc2ccc(S(=O)(=O)Nc3nc(C)cc(C)n3)cc2)c1 [Compound 32]",
    "inhibition at 200 µg/mL / %": 19
  },
  {
    "compound": "CC1COc2c(N3CCN(C)CC3)c(F)cc3c(=O)c(C(=O)O)cn1c23 (centres unmarked) [Ofloxacin, reference compound]",
    "inhibition at 200 µg/mL / %": 89.8
  },
  {
    "compound": "Cc1cc(C)nc(NS(=O)(=O)c2ccc(NC(=O)C(C)Cl)cc2)n1 (centres unmarked) [Compound 11]",
    "inhibition at 200 µg/mL / %": 29.6
  },
  {
    "compound": "Cc1cc(C)nc(NS(=O)(=O)c2ccc(NC(=O)c3ccccc3)cc2)n1 [Compound 39]",
    "inhibition at 200 µg/mL / %": 12.5
  }
]

In the following, a different compound is considered.
Problem: Write down inhibition at 200 µg/mL measured for item Cc1cc(C)nc(NS(=O)(=O)c2ccc(NC(=O)c3ccc([N+](=O)[O-])cc3)cc2)n1 [Compound 25]
Result: 4.64

###

Tested on: mouse fibroblast NIH-3T3 cell line
assay name: MTT cytotoxicity assay
Type: cell-based
setup conditions: MTT, 48 hours
Protocol: The cytotoxicity was recorded as concentration causing 50% growth inhibition (IC50).
pIC50: −log10 of the molar value.
measurement label: pIC50

Problem: Write down pIC50 measured for item Cc1cc(C)nc(NS(=O)(=O)c2ccc(NC(=O)c3cccc(C(F)(F)F)c3)cc2)n1
Result: < 4.52
